Source of measurements: patent US20220025002A1

assay target: T1, CC2-LZ domain of NEMO (mouse CC2-LZ) (mouse, UniProt O88522 251-337, limits assumed)
T1 construct: domain: CC2-LZ; The methods say that the mouse CC2-LZ was used in the fluorescence anisotropy assay; also called NOA; UBAN
T1 sequence (O88522 251-337 limits assumed): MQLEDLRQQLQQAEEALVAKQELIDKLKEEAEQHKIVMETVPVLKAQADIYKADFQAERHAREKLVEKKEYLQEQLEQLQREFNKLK
test protocol: fluorescence polarization, labelled peptide fixed at 0.1 µM, CC2-LZ titrated
Bridges are numbered along the chain shown (N, C = ends). Where no end group is shown, it is not given here. [ ]: non-standard residue; d: D form. R8 = C=CCCCCCC[C@@](C)(N)C(=O)O; S5 = C=CCCC[C@](C)(N)C(=O)O; Aib = CC(C)(N)C(=O)O
measure name: Kd (µM)
Field: numeric (µM). Do not append units.

1) CRQIKIWFQNRRMKWKKLK[Aib]Q[Aib]DIYK[Aib]RFQ[Aib]ERH[Aib]REK (also: N-terminal Cys labelled with BODIPY or FITC) [A-UBI-AIB]	5

Task item: Which Kd reading was recorded for the binder Ac-CLK[R8]QADIYK[S5]RFQAERHAREK (staple 4-11; not fully specified (C-terminus); also: extra N-terminal Cys labelled with BODIPY or FITC (label not settled), staple isomer A (cis), also called UBI-SAHNA303-A310 (A); A303 R8-A310 S5) [UBI-SAHN A303-A310, conformer A] ?
Reply: 76

Task item: Query Ac-CRQIKIWFQNRRMKWKKLKAQADIYK[S5]RFQ[S5]ERHAREK-NH2 (staple 27-31; also: N-terminal Cys thiol labelled with BODIPY or FITC (BODIPY FL maleimide), Stapled i,i+4 with N-terminal antennapedia) [A-UBI-SAHN A310-A314] next
Reply: 0.2
